Hey, just so you know, these numbers are from the supplement of paper PMC9170038.

# Test system: K4 kissing-loop RNA reporter;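 note: bound reporter read as fluorescence of individual clusters on recovered sequencing chips by microscopy, with normalized cluster intensities fitted with a binding model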
# protocol-description: apparent KD of K4 kissing-loop reporter; higher = weaker reporter binding
# experimental-context: Eterna round: R107; input ligand: arginine 13.2 mM

residue-string	apparent KD of K4 kissing-loop reporter / nM
UAUAUAUGAUGUGAUACCAGUGAAAAGCCAGUGAUGUUGGAGGAGCUGGUAUAUAAAUAAGACCCUUGGCAGCACAAUCACGUAU [#01 K4 Theophylline B Exclusion]	202
AAGUGUGUGGCGGCCGCCACUAGAAUCCAGUGAUGUUGGAGUUAUCAUAUAAAUGAUAAUCAACAUAGGACCGGGCCAUAUAGAA [Same State - Tryptophan B (Freestyle 7)]	523
CGCAGUGAUGUUGCUUUUAUUCUUGGUUAACGAGGACCGGUACGGCCGCCACUCGAUUUCUAUCUAUUCCAGUGUUUUUUUGAGU [JR_ExcTryptoA_Sub004]	374
AUUUUGGUUUAGAGUGAUGUUCCUUGUGUUCGAGGACCGGUACGGCCGCCACUCGGGUAGAAAAGAAAAGAAAUGUUUGAUUUUU [BDazzled - #10 SS Tryptophan A]	105
CAUACGCAUGGAGGAUAUGAGAUUACUCAUAUCAUUUAAUAUUCUCAGUGAUGUUGAGAUUUAGACUCAGAAGGCCAUGUGUAUG [Ex FMN B 13]	310
AAGUGUGUGGCGGCCGCCACUAGAAUCCAGUGAUGUUGGAGUAAUCAAAUAAAUAAUAAUAAACAUAGGACCGGGCCAUAUAGAA [Same State - Tryptophan B (Freestyle 2)]	138
AUUAUAAAGUCGGCCGCCACUGAGAGUAGUGAUGUUACUCUAUUCCUUUAGAUAUUAUAUUUUAUCAGGACCGGGACAUCAGAUU [JR_ExcTryptoB_Sub019]	341
AUAAACUUGCAGUGAUGUUGCAAGUAAGACUAGGAUAUCAGGAAACUGAGAAGGAGUCAUCUCCUUCACUUGCAACUAGGAGGAG [[K1]-[K2]-[F1]-[F2]-[F]'-[K]'-[F]''_Design6]	93.4
AAUGAUGAUUGACACAUUUACUAAAAGGAAGGAGCGGCGAAGUAGCCAGGUAGGUCGCCUUAUAGCAGUGAUGUUGCUAUUUGUU [JR_Nu_ExcArginiA_Sub027]	106
GGGAGGAAAAUUUUCCUCAAAAGUUGGCUACAGGAUAUCGUGGGAAUGAGAAGGGUAACCGAGACGCCCAGUGAUGUUGGGUGCC [Antegete]	247
AAUGUACAGGGAAGGAGCGUCGUCCAGUGAUGUUGGAGUUAAAUACCAGUGAUGUUGGUUAGGCAGGUAGGUCGCCCUAAAGUAG [#09 K4 Arginine B Exclusion]	71.4

###

# Tested on: MS2 coat protein
# protocol-description: apparent KD of MS2 coat protein; designed switch direction (-1 OFF switch, 1 ON switch): -1; higher = weaker reporter binding
# experimental-context: input ligand: FMN 200 uM
Listing of entries alongside the reported apparent KD of MS2 coat protein.

residue-string	apparent KD of MS2 coat protein [nM]
AUAAUGUGAGGAUAUCACGGCCCGAUGAGUACGGUAAACGAUGAGAAGGCACAUGAGGAUCACCCAUGUUCCUG [EX4 A.15] (Eterna round: R97, puzzle: Exclusion 4)	47.8
UGUUGUUACGUAGGAUAUCCACCAACAGGUGGAAGGAUAUGGAAACAGAAGGUUCGCCAACAGGCGGAGAAGGACGGGUUAACA [pwkr exNG2 2xF7 2xFMN.22] (Eterna round: R96, puzzle: Exclusion NG 2)	42.5
GAUUAGCAAGCGAGAUCCCACAUGAGGAUCACCCAUGUGCUCGUCUUAUAAAGUACUGUGACGAAAGUCACGGUACA [Mat - Sensor, turn-off var - Eli Mod - D11] (Eterna round: R97, puzzle: Sensor, turn-off variant 1)	17.2
CGGGUGAUAGGAUAUGACCAAGGUGACAUGAGGAUCACCCAUGUGAUCGUCGUAGACCUGUCAGAAGGGUUCCCGA [Bivevebe] (Eterna round: R97, puzzle: Exclusion 5)	78.7
GGACCGUGAGGAUAUAGAGGUCGCGUCAUAGGGCGUGGUUACUAGAAGGCACAUGAGGAUCACCCAUGUUCAUC [Eternabot (L1) Solution 7] (Eterna round: R97, puzzle: Exclusion 4)	50.4

###

# Tested on: MS2 coat protein
# protocol-description: apparent KD of MS2 coat protein; higher = weaker reporter binding
# experimental-context: Eterna round: R107; input ligand: theophylline 2 mM

residue-string	apparent KD of MS2 coat protein (nM)
UGGUCCGUCGGAAGGAGCGACAUGAGGAUCACCCAUGUCUCCCGUUAUGGGAGUUCUUUAGGUCAGGUAGGUCGCCGGCGGGUCA [#1 Exclusion - Arginine B Attempt #12 (Inspired by Omei)]	220
UGGUAUGUAGGAAGGAGCGCAUACUUCACAUGAGGAUCACCCAUGUCGAGACGUGAGUCAGUGCAGGUAGGUCGCCUAGUUAUGA [Same State - Arginine B (Freestyle 22)]	28.1
GUAAUUUAUUGAAGGAGCGUCGAAAAUGGGUAAACAUGAGGAUCACCCAUGUAAAGGGAACGACAGGUAGGUCGCAAUAGGUUAC [AstromonsSSArgB#29]	285
CGGUCGGUCGGCCGGUGAUUAUGGGAUGAAGGAGCGUGGGAAGCUACAGGUAGGUCGCAUCCGAAAGAUGAGGAUCACCCAUCUU [SSArg A #24Alt-Ms2 Mod]	46.4
GGAUGGAACUCGGCCGCCACUGGUGAUCCUAAUGUACAUGAGGAUCACCCAUGUACAUGAGAAGAUAGGACCGGGAGAUAAGGGA [Tryptophan B V4 (+4G)]	26.3
UUUAUUAUUGACUCGUUAUUGUUUUUGGAUCGAGGACCGGUACGGCCGCCACUCGUGAUAUACAUGAGGAUCACCCAUGUUAGCA [JR_Nu_SSTryptoA_Sub020]	17.2
GUUGUAUACUCGGCCGCCACUGAGAGAGUCAUGUAAACAUGAGGAUCACCCAUGUAAUAUAUAUACAGGACCGGGAGUGUGGUAA [4.G]	12
AGCGUGCAUAGGAAAACUAUGUACGCAAAUCGAGGACCGGUACGGCCGCCACUCGUCCUCAACAUGAGGAUCACCCAUGUAAUAA [Mat - Exclusion - Trytophan A - D9]	22.5

###

# Test system: MS2 coat protein
# protocol-description: apparent KD of MS2 coat protein; designed switch direction (-1 OFF switch, 1 ON switch): -1; higher = weaker reporter binding
# experimental-context: Eterna round: R95; input ligand: microRNA oligo, concentration not stated
I would appreciate it if you labelled entries y when apparent KD of MS2 coat protein is 0.02 µM or higher, otherwise n.

residue-string	qualitative-label
AGAUGUACCUAGGAUAUCCGUCUUAUUGGACUAGGAGAAGGAGGUACAUGAGGAUCACCCAUGUAUGACUCCUG [Veisteer] (puzzle: Exclusion 6)	n
UUUAAUUUUUUUUUUUUACAAGCUUUUUGCUCGUCUUAUACAUGAGGAUCACCCAUGUGGGUAGGAGAUAAAUUAUC [JMF 16] (puzzle: Sensor v3, turn-off variant 2)	y
ACAAAGGUAGGAUAUCGGACUAUGGACAUGAGGAUCACCCAUGUGCGUCCAAUGCCCAACCGAGAAGGACCAACAG [Isindiedbe] (puzzle: Exclusion 5)	y
ACAAGCUUUAGGCGUGUGAACAUGAGGAUCACCCAUGUAAAGUAGGUUAGGAGGUCUGUAAGGGAUGCUCGUCUUAU [JR_SWV3TOV1_Sub090] (puzzle: Sensor v3, turn-off variant 1)	y
GAUUAUGCGAGCUUUAGGGACAUGAGGAUCACCCAUGUUCGUCUUAUUGAUCUAGAUGCACUGACAUACCUAAAUCU [JMF 77] (puzzle: Sensor v3, turn-off variant 1)	n
CAAAAGGUAGGAUAUACGAAAAAAAAGGGUAGAAAAAAAACACAUGAGGAUCACCCAUGUAGAAGGACCAAAAA [salish99_ex2_r3_055] (puzzle: Exclusion 2)	y
UUUUAACAUGAGGAUCACCCAUGUGAGGAUAUCGAAAUUUAUAUUAAUAUUUAUAAAUCGAGAAGGCACAUUUU [JMF 52] (puzzle: Exclusion 1)	y
CCGCAAAUGGAGGAUAUCGUAUCGGAUACGAUACGAGAAGGCCAAACAUGAGGAUCACCCAUGUGUCCUAGCGG [Fiskers Ex 6 - 37] (puzzle: Exclusion 6)	n

###

# System: MS2 coat protein
# protocol-description: apparent KD of MS2 coat protein; designed switch direction (-1 OFF switch, 1 ON switch): -1; higher = weaker reporter binding
# experimental-context: input ligand: none

residue-string	apparent KD of MS2 coat protein
CGGCAACAUGAGGAUCACCCAUGUUAGGAUAUCGGUGGCUGACACGAAACAGGACCGGUGAGAAGGAGUAUGGU [Eternabot (L1) Solution 2] (Eterna round: R97, puzzle: Exclusion 1)	39.2 nM
ACAGGUGCAGGAUAUACAUGAGGAUCACCCAUGUAGAUCAACCAGCGAUAGCUGGAAUGUAGAAGGGCACCUGU [E3/5-D1] (Eterna round: R97, puzzle: Exclusion 3)	18.5 nM
GACUGCCGAGGAUAUACAUGAGGAUCACCCAUGUGCUUCAGUAUCGAAAGAUGCAUGGGUAGAAGGCGGUAGUC [LRO-Excl3-10] (Eterna round: R96, puzzle: Exclusion 3)	1410 nM
ACAAGUUUUUAGAUUCUUAACAUGAGGAUCACCCAUGUGCUCGUCUUGUUUGUACUAUCACCGCCGGUGAUAGUACA (Eterna round: R97, puzzle: Sensor, turn-off variant 1)	81 nM
UGUUGUUACGUAGGAUAUCCACCAACAGGUGGAAGGAUAUGGAAACAGAAGGUUCGCCAACAGGCGGAGAAGGACGGGUUAACA [pwkr exNG2 2xF7 2xFMN.22] (Eterna round: R96, puzzle: Exclusion NG 2)	32.3 nM
UACAUGAGGAUCACCCAUGUUUUGUCGUGUAUGGUAUUUAUCUAGGAUAUCAUUUGAUUUAGUUAUGAGAAGGAGAAUAUUAAU [JMF's solution 86] (Eterna round: R96, puzzle: Exclusion NG 3)	29.9 nM
GCAUGUCUUAAGGAUAUGCUAAGGCGUGAGCCAGCAGAAGGUAAGACAUGAGGAUCACCCAUGUUUUCCUAAAA [jl-ex6-4.33 ViennaUCT mod] (Eterna round: R97, puzzle: Exclusion 6)	18.9 nM
GGAUCGAAUGUGAGGAUAUGCAGGUCCUUGGAUCUGCAGAAGGCACAUGAGGAUCACCCAUGUGACCUAGAUCC [Mat - Exclusion 4 - Eli Mod - D44] (Eterna round: R97, puzzle: Brourd's mod of Exclusion 4)	30.5 nM
UGUUAGAUGGUAGGAUAUCCAUAUCGAGUGACCCUUUCAUAACAUGAGGAUCACCCAUGUCGGUGGGAGAAGGGCCGUAUGGUG [salish99_ExNG02_R04_031] (Eterna round: R96, puzzle: Exclusion NG 2)	22.7 nM
CUCGUGCAGCAAAGCUGUACGAGUACAUGAGGAUCACCCAUGUAGGAUAUGGUACGCAAAGCGUGCCAGAAGGACGUGCGUUAG [Mat - Exclusion NG 3 - Mod of JL - D94] (Eterna round: R96, puzzle: Exclusion NG 3)	49.7 nM
